The origin of these recorded values is patent US20260285850A1.

Test system: ryegrass, Italian (italian ryegrass, Lolium multiflorum)
test.details: Test A postemergence application, visual injury rating 0-100
Type: in vivo
reported.conditions: 62 g ai/ha, postemergence, 10 days, 0 = no effect, 100 = complete control
property.measured: Ryegrass, Italian plant response rating (0-100)
Lab note: jot down the number only; don't add units.

Recorded Ryegrass, Italian plant response rating (0-100), per entry:
>>> reading("COC(=O)C1C=CC(NC(=O)C2(C)CN(c3cc(F)cc(F)c3)C(=O)O2)C1 (mixture of isomers)")
80
>>> reading("C=CC1(C(=O)NC2COC(C(=O)OC)C2)CN(c2cc(F)cc(F)c2)C(=O)O1 (stereo not shown)")
0
>>> reading("COC(=O)COC(=O)C1=CCC(NC(=O)C2(C)CN(c3cc(F)cc(F)c3)C(=O)O2)C1 (stereo not shown)")
60
>>> reading("COC(=O)C1C=CC(NC(=O)C2(C)CN(c3cc(Cl)c(F)c(Cl)c3)C(=O)O2)C1 (stereo not shown)")
80
>>> reading("CCOC(=O)C1=CCC(NC(=O)C2(C)CN(c3cc(F)cc(Cl)c3)C(=O)O2)C1 (stereo not shown)")
0

**Q:** Entry CC1(C(=O)NC2CC=C(C(=O)OCC(F)(F)F)C2)CN(c2cc(F)cc(Cl)c2)C(=O)O1 (stereo not shown) has what Ryegrass, Italian plant response rating (0-100)?
**A:** 80

**Q:** Entry Cc1cc(C)cc(N2CC(C)(C(=O)NC3C=CC(C(=O)O)C3)OC2=O)c1 (stereo not shown) has what Ryegrass, Italian plant response rating (0-100)?
**A:** 60

**Q:** Entry CC1(C(=O)NC2CC=C(C(=O)O)C2)CN(c2cc(F)cc(Cl)c2)C(=O)O1 (stereo not shown) has what Ryegrass, Italian plant response rating (0-100)?
**A:** 0

**Q:** Entry CC(C)OC(=O)C1=CCC(NC(=O)C2(C)CN(c3cc(F)cc(F)c3)C(=O)O2)C1 (stereo not shown) has what Ryegrass, Italian plant response rating (0-100)?
**A:** 0

**Q:** Entry C=CC1(C(=O)NC2C=CC(C(=O)OC)C2)CN(c2cc(F)cc(F)c2)C(=O)O1 (single isomer, unassigned) has what Ryegrass, Italian plant response rating (0-100)?
**A:** 90

**Q:** Entry COC(=O)C1C=CC(NC(=O)C2(C)CN(c3cc(C)cc(C)c3)C(=O)O2)C1 (stereo not shown) has what Ryegrass, Italian plant response rating (0-100)?
**A:** 70

**Q:** Entry CC(C)OC(=O)C1=CCC(NC(=O)C2(C)CN(c3cc(Cl)cc(Cl)c3)C(=O)O2)C1 (stereo not shown) [Compound 106] has what Ryegrass, Italian plant response rating (0-100)?
**A:** 0

**Q:** Entry CC(C)OC(=O)C1=CCC(NC(=O)C2(C)CN(c3cc(Cl)cc(Cl)c3)C(=O)O2)C1 (stereo not shown) [Compound 105] has what Ryegrass, Italian plant response rating (0-100)?
**A:** 0
